Target: T1, human PRLR on cells (human, UniProt P16471 25-622)
T1 sequence: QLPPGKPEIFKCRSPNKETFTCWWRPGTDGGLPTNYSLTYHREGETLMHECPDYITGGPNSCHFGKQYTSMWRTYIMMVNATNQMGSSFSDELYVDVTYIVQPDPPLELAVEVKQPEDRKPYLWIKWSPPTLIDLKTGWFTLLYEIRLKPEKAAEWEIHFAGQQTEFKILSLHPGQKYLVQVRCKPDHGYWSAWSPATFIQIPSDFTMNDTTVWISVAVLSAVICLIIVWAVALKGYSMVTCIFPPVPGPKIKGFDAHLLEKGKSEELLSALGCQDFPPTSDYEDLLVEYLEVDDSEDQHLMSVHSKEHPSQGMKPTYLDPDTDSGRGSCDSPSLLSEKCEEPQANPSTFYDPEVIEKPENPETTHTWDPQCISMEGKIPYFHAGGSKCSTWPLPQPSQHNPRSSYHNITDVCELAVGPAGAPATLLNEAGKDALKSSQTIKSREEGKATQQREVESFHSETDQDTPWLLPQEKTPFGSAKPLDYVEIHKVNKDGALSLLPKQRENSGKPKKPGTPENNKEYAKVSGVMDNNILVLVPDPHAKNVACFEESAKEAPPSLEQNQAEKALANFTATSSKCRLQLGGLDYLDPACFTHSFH
Assay: cell-based or functional assay
quantity measured: Baf3-hPRLR proliferation IC50 (µg/mL)
The reply should contain only the number, in µg/mL.

binder="Ab53 (antibody, human IgG1, kappa, V domains shown, humanized from Ab7 (back mutations on Ab36); G1; also called Ab4 HC.1b.2 and Ab4 LC.1a) VH: EVQLVQSGAEVKKPGSSVKVSCKASGYTFTSYWIHWVRQAPGQGLEWIGEIDPSDSYTNYNQKFKGRVTITVDKSTSTAYMELSSLRSEDTAVYYCARSFFTNWFAYWGQGTLVTVSS VL: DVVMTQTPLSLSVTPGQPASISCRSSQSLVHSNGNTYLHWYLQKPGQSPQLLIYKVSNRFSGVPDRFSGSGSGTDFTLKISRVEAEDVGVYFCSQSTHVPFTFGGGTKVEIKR" quantity_measured="Baf3-hPRLR proliferation IC50" assay_result=1.03

Could you now look at the following binder, please?
Task item: For the binder LFA102 (antibody, human IgG1, kappa, V domains shown, humanized IgG1 kappa comparator (WO 2008022295)) VH: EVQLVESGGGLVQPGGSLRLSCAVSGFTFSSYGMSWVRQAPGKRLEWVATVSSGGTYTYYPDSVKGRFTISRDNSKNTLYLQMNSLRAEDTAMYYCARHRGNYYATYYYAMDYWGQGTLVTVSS VL: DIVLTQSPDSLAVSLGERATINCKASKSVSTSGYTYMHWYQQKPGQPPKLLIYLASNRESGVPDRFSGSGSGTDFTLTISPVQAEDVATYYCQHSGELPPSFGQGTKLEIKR , give its reported Baf3-hPRLR proliferation IC50.
Reply: 0.56
